Every entry's value here was drawn from the supplement of paper PMC9428881.

Assay: background-corrected fluorescence of 3'-dye-labeled ssDNA relative to brightest sequence (3'-GCGCG) (fraction); higher = brighter dye fluorescence (less quenching)
Conditions: dye: Cy5 (3' terminal)
measured.attribute: background-corrected fluorescence
I'd appreciate a reply containing only the number, no unit.

Example entries and their recorded answers appear below.
Measured background-corrected fluorescence of TTTTTTCATCATCATGCTGCTTTTTTTTTTTTTTTGGGAA [AAGGG] : 0.596

Reported background-corrected fluorescence for "TTTTTTGAGCAGCAGCAGCATTTTTTTTTTTTTTTCTTTT" was 0.357

Input TTTTTTGCTCATCAGCAGCATTTTTTTTTTTTTTTAGGTT [TTGGA] . Output background-corrected fluorescence: 0.464

For reference, reported background-corrected fluorescence for TTTTTGCATGATGAGCATGCTTTTTTTTTTTTTTTTCCTA [ATCCT] stands at 0.355

For reference, reported background-corrected fluorescence for TTTTTTGCTGCGCATCAGCATTTTTTTTTTTTTTTAATGT [TGTAA] stands at 0.507

Next:
Item: "TTTTTTGCTGCTGATGCTGCTTTTTTTTTTTTTTTAACAA" | background-corrected fluorescence: 0.419

background-corrected fluorescence reported for this sequence TTTTTTGCTGCTGCTCATGATTTTTTTTTTTTTTTAAAGC [CGAAA] : 0.426

Quick note, background-corrected fluorescence for TTTTTTGATGATGCGCATGATTTTTTTTTTTTTTTCCATC [CTACC] landed at 0.281

* * *

// reported background-corrected fluorescence for each item listed
Test: background-corrected fluorescence of 3'-dye-labeled ssDNA relative to brightest sequence (3'-GCGCG) (fraction); higher = brighter dye fluorescence (less quenching)
Settings: dye: Cy5 (3' terminal)
Returns: the value as a bare number; no unit string appended.

Value of background-corrected fluorescence reported for the sequence TTTTTGCATGATGCTCATCATTTTTTTTTTTTTTTTCAGG [GGACT] is 0.486

***
Record TTTTTGCATGCTCATGATGCTTTTTTTTTTTTTTTTAGCA [ACGAT] , field background-corrected fluorescence: 0.447

In plain terms, TTTTTGCAGCATGCTCATGCTTTTTTTTTTTTTTTTTAGA [AGATT] has a documented background-corrected fluorescence of 0.531

* * *

Assay: background-corrected fluorescence of 3'-dye-labeled ssDNA relative to brightest sequence (3'-GCGCG) (fraction); higher = brighter dye fluorescence (less quenching)
Conditions: dye: Cy3 (3' terminal)
Recorded background-corrected fluorescence, one value per entry.
Answer using only a numeral; do not append any unit.

Recorded result, TTTTTTGAGCATGCTCATCATTTTTTTTTTTTTTTCTAGG [GGATC] , background-corrected fluorescence: 0.647

The measured background-corrected fluorescence associated with TTTTTTGCTGCTGCGCATGCTTTTTTTTTTTTTTTAAATA [ATAAA] reads 0.564

Value of measured background-corrected fluorescence for the entry TTTTTTCATGAGCAGCATGATTTTTTTTTTTTTTTGCTTC [CTTCG] : 0.388

The value of background-corrected fluorescence measured for the sequence TTTTTTGATGATGCTGATGCTTTTTTTTTTTTTTTCCACA [ACACC] turned out to be 0.472

Lookup result for TTTTTTCATCATCATGATGCTTTTTTTTTTTTTTTGGGCA [ACGGG] ; measured background-corrected fluorescence: 0.565

The reported value for TTTTTTGATCAGCAGCATGATTTTTTTTTTTTTTTCGTTC [CTTGC] in terms of background-corrected fluorescence is 0.417

***
Given item TTTTTTGCGCAGCATCATCATTTTTTTTTTTTTTTATTGG [GGTTA] , the value recorded as its background-corrected fluorescence is 0.549

So for TTTTTTGCGCATGCTGCTCATTTTTTTTTTTTTTTATAAG [GAATA] , the logged background-corrected fluorescence turned out to be 0.532

Sample TTTTTGCATGCTGCTGCTCATTTTTTTTTTTTTTTTAAAG [GAAAT] ; background-corrected fluorescence observed: 0.552

The sequence identified as TTTTTTGCTGATCATGCGCATTTTTTTTTTTTTTTACGAT [TAGCA] registered its background-corrected fluorescence at 0.519

The reported background-corrected fluorescence of the sequence TTTTTGCATGCTGCTCATCATTTTTTTTTTTTTTTTAAGG [GGAAT] was 0.627
